- target_entity: human DLL3 protein expressed on CHO-K1 recombinant cells (human DLL3 extracellular segment fused to EpCAM transmembrane and intracellular regions) (human) (UniProt Q9NYJ7)
- Sequence (Q9NYJ7 other isoform, or with tags, fused parts or gaps limits assumed): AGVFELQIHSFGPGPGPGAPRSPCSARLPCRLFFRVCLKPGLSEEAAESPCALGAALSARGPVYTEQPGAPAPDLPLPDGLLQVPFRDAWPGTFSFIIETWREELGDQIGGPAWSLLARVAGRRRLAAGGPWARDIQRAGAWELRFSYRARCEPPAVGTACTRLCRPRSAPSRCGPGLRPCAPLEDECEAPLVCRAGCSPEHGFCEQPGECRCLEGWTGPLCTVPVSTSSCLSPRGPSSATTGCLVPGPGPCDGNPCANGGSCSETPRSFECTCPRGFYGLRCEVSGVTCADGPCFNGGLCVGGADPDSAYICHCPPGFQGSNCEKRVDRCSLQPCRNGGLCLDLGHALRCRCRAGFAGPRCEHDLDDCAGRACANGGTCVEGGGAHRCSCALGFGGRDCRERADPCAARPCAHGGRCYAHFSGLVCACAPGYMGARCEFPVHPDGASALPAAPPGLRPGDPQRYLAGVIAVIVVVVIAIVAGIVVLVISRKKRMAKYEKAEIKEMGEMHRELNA
- assay: FACS, CHO-K1 hDLL3 cells, 0.032 nM antibody
measurement_type: MFI (MFI)
Only the number, expressed in MFI, is required.

Observe how each entry below is paired with its result.
binder: Hab008L1H2a-hFc (scFv, part only; not given: VL-VH linker and human IgG1 Fc, V domains shown, not shown: another chain or arm of the molecule; a dimerising Fc or GST; small tags and cut ends) VL: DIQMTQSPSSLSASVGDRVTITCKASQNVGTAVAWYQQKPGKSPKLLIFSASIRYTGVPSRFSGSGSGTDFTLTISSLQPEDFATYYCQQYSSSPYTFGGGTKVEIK VH: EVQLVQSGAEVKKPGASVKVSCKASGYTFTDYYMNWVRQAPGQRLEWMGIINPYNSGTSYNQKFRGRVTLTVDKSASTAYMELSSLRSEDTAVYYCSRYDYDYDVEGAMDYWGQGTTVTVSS
observed_measurement: 316
--
binder: Hab015VL5VH1a-hFc (scFv, part only; not given: scFv linker and human IgG1 Fc, V domains shown, not shown: another chain or arm of the molecule; a dimerising Fc or GST; small tags and cut ends) VL: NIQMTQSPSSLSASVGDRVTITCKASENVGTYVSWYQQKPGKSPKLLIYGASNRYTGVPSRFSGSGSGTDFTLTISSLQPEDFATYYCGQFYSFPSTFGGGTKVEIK VH: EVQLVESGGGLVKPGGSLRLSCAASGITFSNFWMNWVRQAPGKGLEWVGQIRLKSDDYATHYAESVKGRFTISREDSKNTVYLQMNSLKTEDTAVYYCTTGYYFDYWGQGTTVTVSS
observed_measurement: 330

Task: Fill blank: measured MFI of the binder Hab015VL5VH6a-hFc (scFv, part only; not given: scFv linker and human IgG1 Fc, V domains shown, not shown: another chain or arm of the molecule; a dimerising Fc or GST; small tags and cut ends) VL: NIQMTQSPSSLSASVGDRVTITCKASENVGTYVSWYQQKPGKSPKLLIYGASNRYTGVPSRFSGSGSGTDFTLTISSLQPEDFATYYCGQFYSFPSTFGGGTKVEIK VH: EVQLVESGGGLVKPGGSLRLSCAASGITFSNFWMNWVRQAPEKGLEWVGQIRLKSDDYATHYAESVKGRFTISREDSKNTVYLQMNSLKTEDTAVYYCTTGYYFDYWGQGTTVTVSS is ____.
Result: 294

Task: Queued: Hab006VL4VH1-hFc (scFv, part only; not given: scFv linker and human IgG1 Fc, V domains shown, not shown: another chain or arm of the molecule; a dimerising Fc or GST; small tags and cut ends) VL: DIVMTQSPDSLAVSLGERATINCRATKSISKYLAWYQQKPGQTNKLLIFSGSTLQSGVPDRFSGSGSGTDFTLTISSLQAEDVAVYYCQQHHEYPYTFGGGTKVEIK VH: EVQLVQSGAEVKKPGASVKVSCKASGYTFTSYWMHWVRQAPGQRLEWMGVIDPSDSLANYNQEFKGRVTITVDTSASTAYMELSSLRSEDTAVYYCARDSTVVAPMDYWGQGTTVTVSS
Result: 1130

Recorded values, source patent EP4786492A1.
